assay.overview: Tryptophan fluorescent binding assay
condition.description: tryptophan fluorescence; 50 µM peptide, lipid titrated 0-5000 µM; phosphate buffered saline 1X, pH 7.4; values as lipid per peptide
Peptide text beside a SMILES is read from it.
Recorded Lipid Concentration-induced 50% Peptide Binding (L/P), 3POPC/1POPG Vesicle by entry
assay.endpoint: Lipid Concentration-induced 50% Peptide Binding (L/P), 3POPC/1POPG Vesicle

| compound | measurement.units | reported |
| --- | --- | --- |
| CC(C)C[C@H](NC(=O)CN)C(=O)N[C@@H](CC(C)C)C(=O)N[C@@H](CCCCN)C(=O)N[C@@H](CC(C)C)C(=O)N[C@@H](CC(C)C)C(=O)N[C@@H](Cc1c[nH]cn1)C(=O)N[C@@H](CC(C)C)C(=O)N[C@@H](CC(C)C)C(=O)N[C@@H](CC(C)C)C(=O)N[C@@H](Cc1c[nH]cn1)C(=O)N[C@@H](C)C(=O)N[C@@H](C)C(=O)NCC(=O)N[C@@H](Cc1c[nH]c2ccccc12)C(N)=O [KHH] (H-GLLKLLHLLLHAAGW-NH2) | L/P | 0.94 |
| CC(C)C[C@H](NC(=O)CN)C(=O)N[C@@H](CC(C)C)C(=O)N[C@@H](CCC(=O)O)C(=O)N[C@@H](CC(C)C)C(=O)N[C@@H](CC(C)C)C(=O)N[C@@H](Cc1c[nH]cn1)C(=O)N[C@@H](CC(C)C)C(=O)N[C@@H](CC(C)C)C(=O)N[C@@H](CC(C)C)C(=O)N[C@@H](CCC(=O)O)C(=O)N[C@@H](C)C(=O)N[C@@H](C)C(=O)NCC(=O)N[C@@H](Cc1c[nH]c2ccccc12)C(N)=O [EHE] (H-GLLELLHLLLEAAGW-NH2) | L/P | 0.44 |

* * *

Tested on: HMLER
assay.overview: cells
Format: cell-based, human
condition.description: 72 h
Peptide text beside a SMILES is read from it.
Recorded IC50 values for a group of compounds are listed next.

| compound | IC50 |
| --- | --- |
| CC(C)C[C@H](NC(=O)CN)C(=O)N[C@@H](CC(C)C)C(=O)N[C@@H](CC(=O)O)C(=O)N[C@@H](CC(C)C)C(=O)N[C@@H](CC(C)C)C(=O)N[C@@H](CCC(=O)O)C(=O)N[C@@H](CC(C)C)C(=O)N[C@@H](CC(C)C)C(=O)N[C@@H](CC(C)C)C(=O)N[C@@H](CCC(=O)O)C(=O)N[C@@H](C)C(=O)N[C@@H](C)C(=O)NCC(=O)N[C@@H](Cc1c[nH]c2ccccc12)C(N)=O [DEE] (H-GLLDLLELLLEAAGW-NH2) | 5.55 µM |
| CC(C)C[C@H](NC(=O)CN)C(=O)N[C@@H](CC(C)C)C(=O)N[C@@H](CCC(=O)O)C(=O)N[C@@H](CC(C)C)C(=O)N[C@@H](CC(C)C)C(=O)N[C@@H](Cc1c[nH]cn1)C(=O)N[C@@H](CC(C)C)C(=O)N[C@@H](CC(C)C)C(=O)N[C@@H](CC(C)C)C(=O)N[C@@H](Cc1c[nH]cn1)C(=O)N[C@@H](C)C(=O)N[C@@H](C)C(=O)NCC(=O)N[C@@H](Cc1c[nH]c2ccccc12)C(N)=O [EHH] (H-GLLELLHLLLHAAGW-NH2) | 25.4 µM |
| CC(C)C[C@H](NC(=O)CN)C(=O)N[C@@H](CC(C)C)C(=O)N[C@@H](CCCCN)C(=O)N[C@@H](CC(C)C)C(=O)N[C@@H](CC(C)C)C(=O)N[C@@H](Cc1c[nH]cn1)C(=O)N[C@@H](CC(C)C)C(=O)N[C@@H](CC(C)C)C(=O)N[C@@H](CC(C)C)C(=O)N[C@@H](CCC(=O)O)C(=O)N[C@@H](C)C(=O)N[C@@H](C)C(=O)NCC(=O)N[C@@H](Cc1c[nH]c2ccccc12)C(N)=O [KHE] (H-GLLKLLHLLLEAAGW-NH2) | 3.7 µM |
